Tested on: OVCAR-3
protocol description: Cytotoxicity against human OVCAR-3 cells incubated for 72 hrs by SRB assay
Type: functional, cell-based
assay conditions: OVCAR-3, 72 h
readout kind: IC50

Query: Please give the documented IC50 of C[C@]12C=CC(=O)C=C1CC[C@@H]1[C@@H]2[C@@H](O)C[C@@]2(C)[C@H]1CC[C@]2(O)C(=O)CO
Reply: 1100 nM

###

protocol description: Cytotoxicity against human Huh-7 cells
Type: toxicity, cell-based
Counter-ions that a name gives are not always drawn.
readout kind: CC50 (µM)
Kindly answer with a numeric value in µM, unit omitted.

COc1ccc2c(c1)N(C[C@H](C)CN(C)C)c1ccccc1S2 ... 24.5

Query: Please give the documented CC50 of CN(C)CC/C=C1\c2ccccc2CSc2ccccc21 [DOTHIEPIN HYDROCHLORIDE]
Reply: 28.9

Query: Please give the documented CC50 of CC(=O)c1ccc2c(c1)N(CCCN1CCN(CCO)CC1)c1ccccc1S2
Reply: 23.6

Query: Please give the documented CC50 of COc1ccc(C2=NC(c3ccc(Cl)cc3)C(c3ccc(Cl)cc3)N2C(=O)N2CCNC(=O)C2)c(OC(C)C)c1 (configuration not stated)
Reply: 26.8

###

protocol description: Cytotoxicity against human COV318 cells incubated for 120 hrs by SRB assay
Assay type: functional, cell-based
assay conditions: COV318, 120 h
readout kind: pIC50
A value of pIC50 is the negative decimal logarithm of a concentration given in moles per litre.

Query: Please give the documented pIC50 of C[C@]12C=CC(=O)C=C1CC[C@@H]1[C@@H]2[C@@H](O)C[C@@]2(C)[C@H]1CC[C@]2(O)C(=O)CO [PREDNISOLONE]
Reply: 5.96

###

System: OVCAR-4
protocol description: Cytotoxicity against human OVCAR-4 cells incubated for 72 hrs by SRB assay
Assay type: functional, cell-based
assay conditions: OVCAR-4, 72 h
readout kind: IC50 (µM)
Kindly answer with a numeric value in µM, unit omitted.

Query: GET IC50 where system = OVCAR-4 and item = C[C@]12C=CC(=O)C=C1CC[C@@H]1[C@@H]2[C@@H](O)C[C@@]2(C)[C@H]1CC[C@]2(O)C(=O)CO
Reply: 1.1

###

tested on: Tyrosinase (Agaricus bisporus)
Sequence (O42713 whole entry): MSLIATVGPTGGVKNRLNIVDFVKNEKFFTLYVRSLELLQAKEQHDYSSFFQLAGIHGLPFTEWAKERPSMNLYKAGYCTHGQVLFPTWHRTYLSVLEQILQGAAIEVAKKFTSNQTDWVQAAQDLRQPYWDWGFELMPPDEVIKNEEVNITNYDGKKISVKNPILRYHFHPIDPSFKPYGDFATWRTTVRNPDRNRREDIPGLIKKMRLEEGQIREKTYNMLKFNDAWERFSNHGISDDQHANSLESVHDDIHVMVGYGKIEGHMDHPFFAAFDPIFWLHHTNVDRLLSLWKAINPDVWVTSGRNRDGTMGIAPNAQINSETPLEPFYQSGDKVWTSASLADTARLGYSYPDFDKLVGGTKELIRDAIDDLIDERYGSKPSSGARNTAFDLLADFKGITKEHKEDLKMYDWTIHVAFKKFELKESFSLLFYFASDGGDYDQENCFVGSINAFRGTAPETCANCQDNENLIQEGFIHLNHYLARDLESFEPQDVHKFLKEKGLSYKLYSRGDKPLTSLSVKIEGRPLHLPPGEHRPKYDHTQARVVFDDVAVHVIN
readout kind: IC50 (µM)
Kindly answer with a numeric value in µM, unit omitted.

N=C(N)N/N=C1C=C/C(=N\NC(N)=S)C=C\1 [AMBAZONE] ... 15

Query: Please give the documented IC50 of CCCc1cc(=O)[nH]c(=S)[nH]1 [PROPYLTHIOURACIL]
Reply: 170

Query: Please give the documented IC50 of CCOC(=O)n1ccn(C)c1=S [CARBIMAZOLE]
Reply: 186

Query: Please give the documented IC50 of CC(=O)Nc1ccc(/C=N/NC(N)=S)cc1 [AMITHIOZONE]
Reply: 14
